Some molecules, each annotated with its measured logP.
Experiment: Lipophilicity, log P of the compound
Assay type: physicochemical
Settings: octanol/water
# print the numeric value only

O=[N+]([O-])Nc1nccn1Cc1ccc(Cl)nc1 [DEHYDROIMIDACLOPRID]    0.45

Form field: reported logP of O=[N+]([O-])/N=C1\NCC(O)N1Cc1ccc(Cl)nc1 (configuration not stated) [5-HYDROXYIMIDACLOPRID]
8

====

Assay: Half life in Apis mellifera (honey bee)
Assay type: ADME, organism-based
Conditions: in vivo
metric.name: half-life
Remember to put the unit after the number in your answer.

Form field: reported half-life of O=[N+]([O-])NC1=NCCN1Cc1ccc(Cl)nc1
4.5 h
